pIC50 values by entry
Molecular target: His6-JNK2 (Homo sapiens)
Construct: His6 (N)
Sequence (P45984 whole entry): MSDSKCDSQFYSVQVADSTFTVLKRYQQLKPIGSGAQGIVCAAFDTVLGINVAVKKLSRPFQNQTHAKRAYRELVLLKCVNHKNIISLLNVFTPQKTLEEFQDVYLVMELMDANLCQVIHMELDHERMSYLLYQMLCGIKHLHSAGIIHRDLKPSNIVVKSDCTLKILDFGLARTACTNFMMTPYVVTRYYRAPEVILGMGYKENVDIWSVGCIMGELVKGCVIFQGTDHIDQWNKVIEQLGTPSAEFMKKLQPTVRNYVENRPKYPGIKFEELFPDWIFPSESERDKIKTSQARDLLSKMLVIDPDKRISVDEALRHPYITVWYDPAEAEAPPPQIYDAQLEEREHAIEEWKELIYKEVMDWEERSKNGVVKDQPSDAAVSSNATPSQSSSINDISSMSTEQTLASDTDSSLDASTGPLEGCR
Assay: JNK2 Assay (c-Jun phosphorylation, 32P-ATP filter plate)
Type: biochemical
Conditions: c-Jun phosphorylation reduced to 50% of control; GST-c-Jun(1-79), 11 μM ATP; read-out: IC50 value in the JNK2 Assay
Protocol: To 10 μL of the test compound in 20%/DMSO/80% dilutien buffer consisting of 20 mM HELPS (pH 7.6), 0.1 mM; EDTA, 2.5 mM magnesium chloride, 0.004% Triton×100, 2 μg/mL leupeptin, 20 mM β-glycerolphosphate, 0.1 mM sodium vanadate, and 2 mM DTT in water is added 30 μL of 50 ng His6-JNK2 in the same dilution buffer. […] After 30 minutes, the precipitate is harvested onto a filter plate, diluted with 50 μL of the scintillation fluid and quantified by a counter. […]
pIC50: −log10 of the molar value.

| molecule | pIC50 |
| --- | --- |
| CC(=O)N1CCN(C(=O)c2ccc(Nc3nccc(-c4ccc(SCCCO)cc4)n3)cc2)CC1 | ≥ 6.00 |

Tell me reported pIC50 for COCCNC(=O)c1ccc(Nc2nccc(-c3ccc(Cl)cc3)n2)cc1 , tested with His6-JNK2 (Homo sapiens).
≥ 6.00

Tell me reported pIC50 for CN1CCCC1CCNC(=O)c1ccc(Nc2nccc(-c3ccc(Cl)cc3)n2)cc1 (centres unmarked) , tested with His6-JNK2 (Homo sapiens).
≥ 5.00
